Let's look at some compounds and their measured viability at 24 h, 0.5 ug/mL.
# Protocol notes: Antiproliferative activity against human Hep2 cells assessed as cell survival fraction at 0.5 ug/mL after 24 hrs by MTT assay
# Assay type: cell-based
# Condition label: HEp-2 cells, read-out: Survival
Quantity kind: viability at 24 h, 0.5 ug/mL (%)

[[record]]
compound = "Clc1ccccc1C(c1ccccc1)(c1ccccc1)n1ccnc1"
quantity_kind = "viability at 24 h, 0.5 ug/mL"
unit_info = "%"
quantitative_readout = 85

[[record]]
compound = "CC1CCC/C1=N\\Nc1nc(-c2ccc(I)cc2)cs1 (stereo not drawn)"
quantity_kind = "viability at 24 h, 0.5 ug/mL"
unit_info = "%"
quantitative_readout = 90

[[record]]
compound = "CCCCC/C(C)=N/Nc1nc(-c2ccc(I)cc2)cs1"
quantity_kind = "viability at 24 h, 0.5 ug/mL"
unit_info = "%"
quantitative_readout = 100

[[record]]
compound = "CCC/C(C)=N/Nc1nc(-c2ccc(I)cc2)cs1"
quantity_kind = "viability at 24 h, 0.5 ug/mL"
unit_info = "%"
quantitative_readout = 98

[[record]]
compound = "C/C(=N\\Nc1nc(-c2ccc(I)cc2)cs1)c1ccncc1"
quantity_kind = "viability at 24 h, 0.5 ug/mL"
unit_info = "%"
quantitative_readout = 95

[[record]]
compound = "CCC(CC)=NNc1nc(-c2ccc(I)cc2)cs1"
quantity_kind = "viability at 24 h, 0.5 ug/mL"
unit_info = "%"
quantitative_readout = 92

[[record]]
compound = "Ic1ccc(-c2csc(N/N=C/c3cccc4ccccc34)n2)cc1"
quantity_kind = "viability at 24 h, 0.5 ug/mL"
unit_info = "%"
quantitative_readout = 80

[[record]]
compound = "CC1CC/C(=N\\Nc2nc(-c3ccc(I)cc3)cs2)C1 (stereo not drawn)"
quantity_kind = "viability at 24 h, 0.5 ug/mL"
unit_info = "%"
quantitative_readout = 100


* * *

Reported values of EC50 for individual entries
# Tested on: HEp-2
# Protocol notes: Antiproliferative activity against human Hep2 cells assessed as cell survival fraction after 24 hrs by MTT assay
# Format: cell-based
# Condition label: HEp-2, 24 h
Quantity kind: EC50 (µg/mL)

[[record]]
compound = "CCC/C(C)=N/Nc1nc(-c2ccc(I)cc2)cs1"
quantity_kind = "EC50"
quantitative_readout = 45

[[record]]
compound = "CC1CCC/C1=N\\Nc1nc(-c2ccc(I)cc2)cs1 (stereo not drawn)"
quantity_kind = "EC50"
quantitative_readout = 30

[[record]]
compound = "CCC(CC)=NNc1nc(-c2ccc(I)cc2)cs1"
quantity_kind = "EC50"
quantitative_readout = 50

[[record]]
compound = "Clc1ccccc1C(c1ccccc1)(c1ccccc1)n1ccnc1"
quantity_kind = "EC50"
quantitative_readout = 48

[[record]]
compound = "CC1CC/C(=N\\Nc2nc(-c3ccc(I)cc3)cs2)C1 (stereo not drawn)"
quantity_kind = "EC50"
quantitative_readout = 50

[[record]]
compound = "CCCCC/C(C)=N/Nc1nc(-c2ccc(I)cc2)cs1"
quantity_kind = "EC50"
quantitative_readout = 42

[[record]]
compound = "C/C(=N\\Nc1nc(-c2ccc(I)cc2)cs1)c1ccncc1"
quantity_kind = "EC50"
quantitative_readout = 25

[[record]]
compound = "Ic1ccc(-c2csc(N/N=C/c3cccc4ccccc34)n2)cc1"
quantity_kind = "EC50"
quantitative_readout = 35


// provenance: ChEMBL document CHEMBL2034842
